- Tested on: NCI-H292 lung cancer cells
- assay: FDA drug screening, complete media vs cholesterol-free media without statin (TABLE 1)
- Type: cell-based, human
- reported.conditions: Complete minus Cholesterol-free; […]
Structures can show the parent of a compound that is named as a salt.
Entries and their Difference
Lab note: jot the number down without any unit.

>>> data_value("COc1cc(C)c(/C=C/C(C)=C/C=C/C(C)=C/C(=O)O)c(C)c1C")
"−0.08"

We now examine a further molecule.
Requested field: Difference. Item: Cc1cc(C(C)(C)C)cc(C)c1CC1=NCCN1 [Xylometazoline (hydrochloride)]
−0.59

---

- System: NCI-H292 lung cancer cells
- assay: FDA drug screening, complete media vs cholesterol-free media without statin (TABLE 1)
- Assay type: cell-based, human
- reported.conditions: NCI-H292 cells, complete media
Where a name gives a salt, the structure may show the parent alone.
Form field: Complete (one value per entry).
No unit in the answer, please; the number alone is enough.

Before answering, review these 6 worked examples.
>>> data_value("c1ccc2c(CC3=NCCN3)cccc2c1 [Naphazoline (hydrochloride)]")
0.9279
>>> data_value("CN1c2c(nc(N)[nH]c2=O)NC[C@@H]1CNc1ccc(C(=O)N[C@@H](CCC(=O)O)C(=O)O)cc1 [Levomefolic acid]")
1.368
>>> data_value("CC(C)OC(=O)OCOP(=O)(CO[C@H](C)Cn1cnc2c(N)ncnc21)OCOC(=O)OC(C)C.O=C(O)/C=C/C(=O)O [Tenofovir (Disoproxil Fumarate)]")
0.7425
>>> data_value("CCC(c1ccccc1)c1c(O)c2ccccc2oc1=O (stereo not shown) [Phenprocoumon]")
0.8729
>>> data_value("CNCCC(Oc1ccc(C(F)(F)F)cc1)c1ccccc1 (stereo not shown) [Fluoxetine (hydrochloride)]")
0.9864
>>> data_value("CC(=O)NO [Acetohydroxamic acid]")
0.8978

Consider the additional molecule presented here.
What does the record list as Complete for CCC[C@@H]1C[C@@H](C(=O)N[C@@H]([C@H]2O[C@H](SC)[C@H](O)[C@@H](O)[C@H]2O)[C@@H](C)O)N(C)C1 [Lincomycin (hydrochloride monohydrate)] ?
0.7781
